system: Human dendritic cells; test: CD86 levels at the DC cell surface (flow cytometry); assay type: cell-based; details: DC from individual C; 100 μg, 48 hours
Cut-off 30% on The percentage of CD86^hi DC following treatment, inclusive. At or above means Yes; below means No.

Check out these entries, answers already filled in.
substance	assigned category
5′GGCCGG3′ [N4B] (DNA, all phosphorothioate, methylation of C not given here)	Yes
5′ GTGTGT3′ [N1B]	No
5′GGGCGG3′ [N7A] (DNA, all phosphodiester, methylation of C not given here)	Yes

## Task Assess whether reported The percentage of CD86^hi DC following treatment for 5′GGGCGG3′ [N7B] (DNA, all phosphorothioate, methylation of C not given here) sits at 30% or higher.
## Result Yes

---

test system: Human dendritic cells; assay: Induction of IL-12 production by DC (ELISA); format: cell-based; conditions: DC isolated from individual C; 100 μg, 48 hours
parameter measured: IL-12 production by DC (fold increase compared to untreated DC) (fold)
Output spec: scalar in fold, unitless text.

Here is how some substances turned out for IL-12 production by DC (fold increase compared to untreated DC).
substance	experimental result
5′GGTGGG3′ [N2B]	2.5
5′GGGTGG3′ [N3B]	14.4

Next up:
## Task # return recorded IL-12 production by DC (fold increase compared to untreated DC) for entry 5′GGGAGG3′ [N6B] (DNA, backbone not given here; further chemistry not fully specified)
## Result 4.1

---

Listed substances paired with reported The percentage of MHC-II^hi DC following treatment
system: Human dendritic cells; experiment: MHC-II levels at the DC cell surface (flow cytometry); type: cell-based; details: DC from individual B; 100 μg, 48 hours
Marks after values point to notes of the source that are not given here.

substance	study target	experimental result
5′GGTGGG3′ [N2A]	Human dendritic cells	42** %
5′GGGCGG3′ [N7B] (DNA, all phosphorothioate, methylation of C not given here)	Human dendritic cells	31** %

Next up:
## Task # return recorded The percentage of MHC-II^hi DC following treatment for entry 5′GTGTGT3′ [N1A]
## Result 32** %

---

tested on: Human dendritic cells; assay: Induction of IFN-gamma production by DC (ELISA); assay type: cell-based; details: DC isolated from individual B; 100 μg, 48 hours
parameter measured: IFN-gamma production by DC (fold increase compared to untreated DC) (fold)
Output spec: scalar in fold, unitless text.

substance	experimental result
5′GGTGGG3′ [N2A]	1.1
5′GGGAGG3′ [N6B] (DNA, backbone not given here; further chemistry not fully specified)	1.0

## Task Give measured IFN-gamma production by DC (fold increase compared to untreated DC) for 5′GGGTGG3′ [N3B] (Human dendritic cells).
## Result 4.5

## Task Give measured IFN-gamma production by DC (fold increase compared to untreated DC) for 5′GGGTGG3′ [N3A] (Human dendritic cells).
## Result 1.0

---

test system: Human dendritic cells; test: CD86 levels at the DC cell surface (flow cytometry); assay type: cell-based; settings: DC from individual C; 100 μg, 48 hours
parameter measured: The percentage of CD86^hi DC following treatment (%)
Output spec: scalar in %, unitless text.

Here is how some substances turned out for The percentage of CD86^hi DC following treatment.
substance	unit spec	experimental result
5′GGCCGG3′ [N4A] (DNA, all phosphodiester, methylation of C not given here)	%	23
5′GGGAGG3′ [N6B] (DNA, backbone not given here; further chemistry not fully specified)	%	33
5′GGGGGG3′ [N5A] (unmodified DNA)	%	16
5′GGGAGG3′ [N6A] (unmodified DNA)	%	18

## Task # return recorded The percentage of CD86^hi DC following treatment for entry 5′GGTGGG3′ [N2A]
## Result 26
